The measurements presented in this section are drawn from patent US7687609B2.

V − V0 Value reference
TARGET_OF_ASSAY: Galectin-1 (Homo sapiens, UniProt P09382)
Construct: made in house
Sequence (P09382 whole entry): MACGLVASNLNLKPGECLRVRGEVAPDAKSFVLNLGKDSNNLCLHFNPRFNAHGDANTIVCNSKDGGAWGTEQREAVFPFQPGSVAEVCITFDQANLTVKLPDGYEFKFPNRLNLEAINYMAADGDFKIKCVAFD
PROTOCOL: FAC affinity test on galectin-immobilized column
Assay type: binding
TEST_PARAMETERS: pyridyl-aminated carbohydrate; galectin-1 immobilized 0.8 mg/ml; less than 5 μl = below interaction detection limit

For orientation, consider the following solved cases.
>  <MOLECULE>
CC(=O)N[C@H]1[C@H](O[C@H]2[C@H](O)[C@@H](O)[C@H](O[C@H]3[C@@H](O)[C@@H](CO)OC(O)[C@@H]3NC(C)=O)O[C@@H]2C(=O)O)O[C@H](CO)[C@H](O)[C@@H]1O (stereo partly drawn) [CH3, GalNAc β1-4 GlcA β1-3 GalNAc]

>  <TARGET_OF_ASSAY>
Galectin-1 (Homo sapiens, UniProt P09382)

>  <V − V0 Value>
<5.0 µL

$$$$
>  <MOLECULE>
CC(=O)NC1C(O)OC(COS(=O)(=O)O)C(OC2OC(COS(=O)(=O)O)C(O)C(OC3OC(COS(=O)(=O)O)C(OC4OC(CO)C(O)C(OC5(C(=O)O)CC(O)C(NC(C)=O)C(C(O)C(O)CO)O5)C4O)C(O)C3NC(C)=O)C2O)C1O (stereo not drawn) [SL2L4]

>  <TARGET_OF_ASSAY>
Galectin-1 (Homo sapiens, UniProt P09382)

>  <V − V0 Value>
<5.0 µL

$$$$

Prompt: Could you share what V − V0 Value was measured for CC(=O)N[C@H]1[C@H](O[C@H]2[C@H](O)[C@@H](O)[C@H](O[C@H]3[C@@H](O)[C@@H](CO)O[C@@H](O[C@H]4[C@H](O)[C@@H](O)[C@H](O[C@H]5[C@@H](O)[C@@H](CO)O[C@@H](O[C@H]6[C@H](O)[C@@H](O)[C@H](O[C@H]7[C@@H](O)[C@@H](CO)OC(O)[C@@H]7NC(C)=O)O[C@@H]6C(=O)O)[C@@H]5NC(C)=O)O[C@@H]4C(=O)O)[C@@H]3NC(C)=O)O[C@@H]2C(=O)O)O[C@H](CO)[C@H](O)[C@@H]1O (stereo partly drawn) [CH7, (GalNAc β1-4 GlcA β1-3)3 GalNAc] , tested on Galectin-1 (Homo sapiens, UniProt P09382)?
Completion: <5.0 µL

###

V − V0 Value reference
TARGET_OF_ASSAY: Galectin-1 (Homo sapiens)
Construct: made in house
PROTOCOL: FAC affinity test on galectin-immobilized column
Format: binding
TEST_PARAMETERS: pyridyl-aminated carbohydrate; galectin-1 immobilized 0.8 mg/ml; less than 5 μl = below interaction detection limit

>  <COMPOUND>
CC(=O)NC1C(O)OC(COS(=O)(=O)[O-])C(OC2OC(COS(=O)(=O)[O-])C(O)C(OC3OC(COS(=O)(=O)[O-])C(OC4OC(COS(=O)(=O)[O-])C(O)C(O)C4O)C(O)C3NC(C)=O)C2O)C1O.[Na+].[Na+].[Na+].[Na+] (centres unmarked)

>  <TARGET_OF_ASSAY>
Galectin-1 (Homo sapiens)

>  <PROPERTY_NAME>
V − V0 Value

>  <RESULT>
<5.0 µL

$$$$

Here is another compound to look at.
Prompt: GET /values?readout=V − V0 Value&item= CC(=O)N[C@H]1[C@H](O[C@H]2[C@@H](O)[C@@H](COS(=O)(=O)O)O[C@@H](O[C@H]3[C@H](O)[C@@H](NC(C)=O)C(O)O[C@@H]3COS(=O)(=O)O)[C@@H]2O)O[C@H](COS(=O)(=O)O)[C@@H](O)[C@@H]1O (some centres unmarked)
Completion: <5.0 µL
